- TEST SUMMARY: Log P by HPLC on reversed phase columns, method [a] (EEC directive 79/831 Annex V.A8)
- Format: physicochemical
MEASURE NAME: chromatographic logP

Prompt line: Which chromatographic logP is reported for this molecule? CC(Nc1ncc(-c2nnc(C(F)F)o2)cn1)c1ccc(Cl)nc1 (racemic)
Response line: 2.27

====

Property: logP; scope: individual compounds
- TEST SUMMARY: Log P by HPLC on reversed phase columns, method [a] (EEC directive 79/831 Annex V.A8)
- Type: physicochemical
- SETUP CONDITIONS: log P determined according to method [a] (HPLC on reversed phase columns)
Could you respond with only the numeric value?

Prompt line: Which logP is reported for this compound? FC(F)c1nnc(-c2ccc(-n3ccnn3)cc2)o1
Response line: 1.73

***
Prompt line: Which logP is reported for this compound? Fc1ccc(-c2ncc(-c3nnc(C(F)F)o3)cn2)cn1
Response line: 2.31

Prompt line: Entry FC(F)c1nnc(-c2ccc(N3CCOCC3)nc2)o1 please
Response line: 1.91

Prompt line: Entry FC(F)c1nnc(-c2cnc(Cc3ccccc3)nc2)o1 please
Response line: 2.49

Prompt line: Entry FC(F)c1nnc(-c2ccc(-c3ccco3)nc2)o1 please
Response line: 2.33

Prompt line: Entry CC1(C2(Nc3ncc(-c4nnc(C(F)F)o4)cn3)CC2)CC1 please
Response line: 2.89
